protocol: Dissociation constant, pKa of the compound
Assay type: physicochemical
value kind: pKa

Before answering, review these 4 worked examples.
given smiles	value kind	meas value
Fc1ccc(Cc2ccc3c(NCCCNCc4ccco4)ccnc3c2)cc1	pKa	9.47
Fc1ccc(-c2ccc3c(NCCCNCc4ccco4)ccnc3c2)cc1	pKa	9.47
COc1ccc(F)cc1CNCCCNc1ccnc2cc(Oc3ccc(F)cc3)ccc12	pKa	9.28
COc1ccc(Oc2ccc3c(NCCCNCc4cccc(OC)c4O)ccnc3c2)cc1	pKa	9.28

Note: attention shifts to another entry.
Look up pKa: CC(C)Cc1ccc2c(NCCCNCc3ccco3)ccnc2c1 9.47

###

protocol: Permeability of the compound at pH 7.4 after 30 mins by PAMPA
Format: ADME
settings: read-out: permeability
value kind: Papp at 0.5 h (×10⁻⁶ cm/s)
Quick note: give the figure in ×10⁻⁶ cm/s, leave out the unit.

Look up Papp at 0.5 h: CN(C)c1cccc(Oc2ccc3c(NCCCNCc4ccc5c(c4)OCO5)ccnc3c2)c1 317

Repeat for the following compound: COc1ccc(F)cc1CNCCCNc1ccnc2cc(-c3ccccc3)ccc12 237

Repeat for the following compound: c1ccc(Oc2ccc3c(NCCCNCc4ccc5c(c4)OCO5)ccnc3c2)cc1 317

Repeat for the following compound: COc1ccc(F)cc1CNCCCNc1ccnc2cc(C3CCCCC3)ccc12 23

Repeat for the following compound: c1ccc(CCc2ccc3c(NCCCNCc4ccc5c(c4)OCO5)ccnc3c2)cc1 23

###

Reported pKa values are given for each entry in this list.
protocol: Dissociation constant, pKa of the compound
Format: physicochemical
Give a plain numeric answer without units written out.

Before answering, review these 2 worked examples.
given smiles	meas value
COc1ccccc1Oc1ccc2c(NCCCNCc3ccc4c(c3)OCO4)ccnc2c1	9.28
CN(C)c1cccc(Oc2ccc3c(NCCCNCc4ccc5c(c4)OCO5)ccnc3c2)c1	9.28

Note: attention shifts to another entry.
Look up pKa: CCC(CC)c1ccc2c(NCCCNCc3ccco3)ccnc2c1 9.47

###

Reported Ratio EC50 values are given for each entry in this list.
protocol: Ratio of EC50 for human HepG2 cells to EC50 for Plasmodium falciparum 3D7 infected in human erythrocytes
Give a plain numeric answer without units written out.

Before answering, review these 5 worked examples.
given smiles	value kind	meas value
Fc1ccc(Oc2ccc3c(NCCCNCc4ccc5c(c4)OCO5)ccnc3c2)cc1	Ratio EC50	1067
c1cc(NCCCNCc2ccc3c(c2)OCO3)c2ccc(Cc3ccc4c(c3)OCO4)cc2n1	Ratio EC50	185
COc1cccc(CNCCCNc2ccnc3cc(Cc4ccc5c(c4)OCO5)ccc23)c1O	Ratio EC50	135.4
c1ccc(-c2ccc3c(NCCCNCc4ccc5c(c4)OCO5)ccnc3c2)cc1	Ratio EC50	234
CN(C)c1cccc(Oc2ccc3c(NCCCNCc4ccc5c(c4)OCO5)ccnc3c2)c1	Ratio EC50	12

Note: attention shifts to another entry.
Look up Ratio EC50: COc1ccc(F)cc1CNCCCNc1ccnc2cc(-c3ccc(F)cc3)ccc12 44

###

protocol: Ratio of EC50 for human HepG2 cells to EC50 for Plasmodium falciparum 3D7 infected in human erythrocytes
value kind: Ratio EC50
Give a plain numeric answer without units written out.

Before answering, review these 3 worked examples.
given smiles	Ratio EC50
CN(C)c1cccc(Oc2ccc3c(NCCCNCc4ccco4)ccnc3c2)c1	588
FC(F)(F)c1ccc(-c2ccc3c(NCCCNCc4ccc5c(c4)OCO5)ccnc3c2)cc1	74.5
CCC(CC)c1ccc2c(NCCCNCc3cc(F)ccc3OC)ccnc2c1	194.9

Note: attention shifts to another entry.
Look up Ratio EC50: CC(C)(C)c1ccc(-c2ccc3c(NCCCNCc4ccco4)ccnc3c2)cc1 4.5

Source of measurements: ChEMBL document CHEMBL1833887
